Measured Target: 5-HT1A receptor (Rattus norvegicus, UniProt P19327)
Construct: Hippocampal homogenates (15 μg/mL) were added to each tube as the 5-HT1A receptor source; from tissue; host or cells: rat hippocampus (male Sprague-Dawley), membrane homogenate
Sequence (P19327 whole entry): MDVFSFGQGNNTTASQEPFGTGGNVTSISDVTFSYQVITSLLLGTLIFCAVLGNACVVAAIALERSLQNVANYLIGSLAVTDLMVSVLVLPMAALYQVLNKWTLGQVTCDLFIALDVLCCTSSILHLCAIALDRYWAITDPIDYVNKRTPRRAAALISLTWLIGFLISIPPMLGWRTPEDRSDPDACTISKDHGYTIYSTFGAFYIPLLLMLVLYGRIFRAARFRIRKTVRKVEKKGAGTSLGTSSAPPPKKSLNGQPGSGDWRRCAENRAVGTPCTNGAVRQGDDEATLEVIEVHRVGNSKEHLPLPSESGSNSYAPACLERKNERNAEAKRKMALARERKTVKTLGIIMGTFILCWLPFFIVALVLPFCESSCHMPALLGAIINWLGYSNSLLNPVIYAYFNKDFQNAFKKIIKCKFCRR
Assay Info: Antagonist activity for the 5-HT1A receptor, [35S]GTPγS assay in hippocampal homogenates
Assay type: biochemical
Condition Details: 8-OH-DPAT 1.4 × 10^−7 M, mean ± SEM
Examples of compounds with documented IC50 follow.
Answer format: number, then unit.

# return IC50 for `CC(=O)c1c(C)cc2oc(=O)cc(C)c2c1OCCN1CCN(c2cccc(Br)c2)CC1` , test system: 5-HT1A receptor (Rattus norvegicus, UniProt P19327)
12.6 µM

# return IC50 for `Cc1cc(OCCCCCN2CCN(c3cccc(Cl)c3Cl)CC2)c2c(C)cc(=O)oc2c1` , test system: 5-HT1A receptor (Rattus norvegicus, UniProt P19327)
15.8 µM

# return IC50 for `CC(=O)c1c(C)cc2oc(=O)cc(C)c2c1OCCN1CCN(c2cc(C)ccc2C)CC1` , test system: 5-HT1A receptor (Rattus norvegicus, UniProt P19327)
79.4 µM

# return IC50 for `CC(=O)c1c(OCCCCCN2CCN(c3ccccc3F)CC2)ccc2c(C)cc(=O)oc12` , test system: 5-HT1A receptor (Rattus norvegicus, UniProt P19327)
0.0794 µM

# return IC50 for `CC(=O)c1c(C)cc2oc(=O)cc(C)c2c1OCCCCCN1CCN(c2cc(C)ccc2C)CC1` , test system: 5-HT1A receptor (Rattus norvegicus, UniProt P19327)
10 µM

# return IC50 for `COc1ccccc1N1CCN(CCOc2cc(C)cc3oc(=O)cc(C)c23)CC1` , test system: 5-HT1A receptor (Rattus norvegicus, UniProt P19327)
2 µM

Others:
# return IC50 for `CC(=O)c1c(OCCN2CCN(c3cccc(Cl)c3Cl)CC2)ccc2c(C)cc(=O)oc12` , test system: 5-HT1A receptor (Rattus norvegicus, UniProt P19327)
200 µM

# return IC50 for `CC(=O)c1c(C)cc2oc(=O)cc(C)c2c1OCCCCCN1CCN(c2cccc(F)c2)CC1` , test system: 5-HT1A receptor (Rattus norvegicus, UniProt P19327)
0.708 µM

# return IC50 for `CC(=O)c1c(OCCN2CCN(c3ccccc3Br)CC2)ccc2c(C)cc(=O)oc12` , test system: 5-HT1A receptor (Rattus norvegicus, UniProt P19327)
50.1 µM

# return IC50 for `COc1ccccc1N1CCN(CCCCCOc2cc(C)cc3oc(=O)cc(C)c23)CC1` , test system: 5-HT1A receptor (Rattus norvegicus, UniProt P19327)
0.0316 µM

# return IC50 for `CC(=O)c1c(C)cc2oc(=O)cc(C)c2c1OCCCCCN1CCN(c2cccc(Cl)c2Cl)CC1` , test system: 5-HT1A receptor (Rattus norvegicus, UniProt P19327)
15.8 µM

# return IC50 for `CC(=O)c1c(OCCCCCN2CCN(c3cc(C)cc(C)c3)CC2)ccc2c(C)cc(=O)oc12` , test system: 5-HT1A receptor (Rattus norvegicus, UniProt P19327)
31.6 µM

# return IC50 for `Cc1cc(OCCCCCN2CCN(c3ccccc3F)CC2)c2c(C)cc(=O)oc2c1` , test system: 5-HT1A receptor (Rattus norvegicus, UniProt P19327)
1 µM

# return IC50 for `Cc1cc(OCCN2CCN(c3cccc(Cl)c3Cl)CC2)c2c(C)cc(=O)oc2c1` , test system: 5-HT1A receptor (Rattus norvegicus, UniProt P19327)
398 µM

# return IC50 for `CC(=O)c1c(C)cc2oc(=O)cc(C)c2c1OCCN1CCN(c2cc(C)cc(C)c2)CC1` , test system: 5-HT1A receptor (Rattus norvegicus, UniProt P19327)
39.8 µM

# return IC50 for `CC(=O)c1c(C)cc2oc(=O)cc(C)c2c1OCCCCCN1CCN(c2ccccc2Br)CC1` , test system: 5-HT1A receptor (Rattus norvegicus, UniProt P19327)
0.692 µM

Data credit: paper PMC7996328
